# System: mice
# Test Name: Muscle relaxant activity: rotating rod test
# Format: in vivo, male dd mice
# Condition Context: 300 mg/kg p.o., 1 hr after administration
Quantity Kind: No. of falling mice/five tested mice, rotating rod test (mice/five tested mice)
# unit: mice/five tested mice | format: bare number

input: Requested field: No. of falling mice/five tested mice, rotating rod test. Item: `COc1ccc2oc(CC(=O)N(C)C)c(C)c2c1`
output: 5

input: Requested field: No. of falling mice/five tested mice, rotating rod test. Item: `Cc1c(CC(=O)N(C)C)oc2ccc(F)cc12`
output: 5

input: Requested field: No. of falling mice/five tested mice, rotating rod test. Item: `Cc1ccc2oc(CC(=O)N(C)C)c(C)c2c1`
output: 5

input: Requested field: No. of falling mice/five tested mice, rotating rod test. Item: `Cc1c(CC(=O)N(C)C)oc2ccc(-c3ccccc3)cc12`
output: 3
